Molecular target: PPAR-gamma (Homo sapiens, UniProt P37231)
Construct: purchased Invitrogen
Experiment: Polar Screen PPAR Competitive Assay (fluorescence polarization ligand binding)
Conditions: Table 3, active substances in Oregano; read-out: EC50
value.type: pEC50
When answering, recall that pEC50 equals minus log10 of the concentration in mol/L, and write that number alone.

# lookup: pEC50 of O=c1c(OC2OC(CO)C(O)C(O)C2O)c(-c2ccc(O)c(O)c2)oc2cc(O)cc(O)c12 (centres unmarked) [Isoquercetrin] 4.28

What pEC50 value was documented for this molecule, COc1ccc(-c2coc3cc(O)cc(O)c3c2=O)cc1 [Biochanin A] ? 4.70

Which pEC50 value is on record for O=c1c(O)c(-c2ccc(O)c(O)c2)oc2cc(O)cc(O)c12 [Quercetin] ? 5.59

====

Recorded measurements of pEC50, one per entry
Target: PPAR-gamma (Homo sapiens)
Construct: purchased Invitrogen
Test: Polar Screen PPAR Competitive Assay (fluorescence polarization ligand binding)
Conditions: Table 3, active substances in Oregano; read-out: EC50
Answer as the number alone; pEC50 is minus log10 of concentration in mol/L.

Some molecules with known pEC50 results, for comparison:
compound_smiles=O=c1c(O)c(-c2ccc(O)cc2)oc2cc(O)cc(O)c12 observed=3.33
compound_smiles=O=c1cc(-c2ccc(O)cc2)oc2cc(O)cc(O)c12 observed=3.98

Using the record for O=C1c2c(O)cc(O)cc2O[C@H](c2ccc(O)c(O)c2)[C@H]1O , report its pEC50. 3.56

====

Biological target: PPAR-gamma (Homo sapiens, UniProt P37231)
Construct: purchased Invitrogen
Sequence (P37231 238-503 limits assumed): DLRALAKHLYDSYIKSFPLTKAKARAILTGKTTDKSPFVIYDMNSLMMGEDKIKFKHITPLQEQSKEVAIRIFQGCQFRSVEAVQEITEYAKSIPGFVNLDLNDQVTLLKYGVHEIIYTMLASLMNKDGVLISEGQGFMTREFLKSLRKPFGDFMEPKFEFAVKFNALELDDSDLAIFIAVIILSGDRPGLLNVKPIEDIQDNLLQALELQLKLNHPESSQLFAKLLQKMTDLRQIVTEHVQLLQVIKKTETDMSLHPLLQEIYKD
Experiment: Polar Screen PPAR Competitive Assay (fluorescence polarization ligand binding)
value.type: EC50 (µM)
Please state the figure in µM; there is no need to write the unit.

Worked cases, answers included:
compound="C=CCc1ccc2c(c1)OCO2 [Safrol]" target_desc="PPAR-gamma (Homo sapiens, UniProt P37231)" value_type=EC50 observed=2250
compound="O=c1c(-c2ccc(O)cc2)coc2cc(O)cc(O)c12 [Genistein]" target_desc="PPAR-gamma (Homo sapiens, UniProt P37231)" value_type=EC50 observed=22
compound="O=C(/C=C/c1ccccc1)c1ccccc1O [2′-Hydroxychalcone]" target_desc="PPAR-gamma (Homo sapiens, UniProt P37231)" value_type=EC50 observed=20

Now for another entry.
If you can, please state the reported EC50 value of O=C(O)c1cc(O)c(O)c(O)c1 [Gallic acid] . 128

====

Target: PPAR-gamma (Homo sapiens, UniProt P37231)
Construct: purchased Invitrogen
Assay: Polar Screen PPAR Competitive Assay (fluorescence polarization ligand binding)
Details: Table 3, active substances in Oregano; read-out: EC50
pEC50: −log10 of the molar value.
Label 1 when pEC50 >= 4; otherwise 0.

Study these solved cases before continuing.
compound=O=C1C[C@@H](c2ccc(O)c(O)c2)Oc2cc(O)cc(O)c21 target_desc="PPAR-gamma (Homo sapiens, UniProt P37231)" class_label=1
compound=O=C(O)/C=C/c1ccc(O)cc1 target_desc="PPAR-gamma (Homo sapiens, UniProt P37231)" class_label=0
compound=O=C(/C=C/c1ccc(O)c2c1[C@H](C(=O)O[C@H](Cc1ccc(O)c(O)c1)C(=O)O)[C@@H](c1ccc(O)c(O)c1)O2)O[C@H](Cc1ccc(O)c(O)c1)C(=O)O target_desc="PPAR-gamma (Homo sapiens, UniProt P37231)" class_label=0
compound=O=C(/C=C/c1ccc(O)c(O)c1)O[C@H](Cc1ccc(O)c(O)c1)C(=O)O target_desc="PPAR-gamma (Homo sapiens, UniProt P37231)" class_label=1
compound=O=c1cc(-c2ccc(O)cc2)oc2c([C@@H]3O[C@H](CO)[C@@H](O)[C@H](O)[C@H]3O)c(O)cc(O)c12 target_desc="PPAR-gamma (Homo sapiens, UniProt P37231)" class_label=0

Is the recorded value of pEC50 equal to or greater than 4 for this compound? O=c1cc(-c2ccc(O)c(O)c2)oc2cc(O)cc(O)c12 1

Please indicate if the recorded pEC50 for O=c1cc(-c2ccc(O)cc2)oc2cc(OC3O[C@H](CO)[C@@H](O)[C@H](O)[C@H]3O)cc(O)c12 (some centres unmarked) [Apigenin-7Glycoside] meets or exceeds 4. 0
